System: Jurkat
Experiment: mean cell size (FSC-A) relative to DMSO control (fraction of control); higher = larger cells
Details: 48 h
Counter-ions that a name gives are not always drawn.
Item-by-item account of mean cell size
EXPERIMENTAL_ENDPOINT: mean cell size

INSERT INTO measurements (molecule, experimental_endpoint, test_result) VALUES
  ('Cc1ccccc1N1C(=O)c2cc(S(N)(=O)=O)c(Cl)cc2NC1C (stereo not drawn) [Metolazone] (concentration: 25 µM)', 'mean cell size', 0.997),
  ('CCCN(CCC)CCc1cccc2c1CC(=O)N2 [Ropinirole·HCl] (concentration: 25 µM)', 'mean cell size', 0.974),
  ('Cc1cccc(C)c1NC(=O)C1CCCCN1C (stereo not drawn) [Mepivacaine·HCl] (concentration: 25 µM)', 'mean cell size', 0.91);
